System: NF-κB
Experiment: NF-κB DNA binding activity (EMSA / gel shift)
Format: cell-based, human
Settings: Mia PACA-2, 24 hours, no serum; polyphenols 100 μM, MG-132 20 μM
quantity-kind: NF-κB activation (DNA binding)

• Oc1ccc(/C=C/c2cc(O)cc(O)c2)cc1 [trans-resveratrol] = inhibit NF-κB activation
• O=c1c(O)c(-c2ccc(O)c(O)c2)oc2cc(O)cc(O)c12 = inhibit NF-κB activation

Entry source: patent US6953786B2
